Property: EC50; scope: individual molecules
Biological target: H3 receptor (Homo sapiens)
Construct: pcDNA3)
Sequence (Q9Y5N1 whole entry): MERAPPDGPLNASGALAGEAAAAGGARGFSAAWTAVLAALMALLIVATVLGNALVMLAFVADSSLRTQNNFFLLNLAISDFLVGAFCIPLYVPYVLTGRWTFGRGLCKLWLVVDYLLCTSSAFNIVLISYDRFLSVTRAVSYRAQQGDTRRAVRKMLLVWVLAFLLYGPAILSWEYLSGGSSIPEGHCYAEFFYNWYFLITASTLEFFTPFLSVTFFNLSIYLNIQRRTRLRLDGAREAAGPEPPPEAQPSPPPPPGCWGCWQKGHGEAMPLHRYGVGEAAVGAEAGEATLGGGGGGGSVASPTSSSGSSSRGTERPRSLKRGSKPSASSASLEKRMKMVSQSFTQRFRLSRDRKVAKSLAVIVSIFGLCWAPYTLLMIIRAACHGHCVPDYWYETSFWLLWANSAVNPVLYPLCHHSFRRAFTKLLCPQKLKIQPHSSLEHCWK
Experiment: Functional Assay: cAMP accumulation (Flash Plate) in HEK293 cells expressing the human H3 receptors
Settings: cAMP accumulation stimulated with isoprenaline, h-H3-HEK 293 cells

>>> df
                  smiles_entry           target_under_test   result
0  Cc1[nH]cnc1CCCOCc1cccc(I)c1  H3 receptor (Homo sapiens)  < 50 nM

Identify EC50 associated with the molecule `Cc1[nH]cnc1CCCCOc1ccc2ccccc2c1`
< 100 nM

====

Target: H3 receptor (Homo sapiens)
Construct: expressed in transfected cells; pcDNA3)
Assay: Binding Assay III: [125I]-iodoproxifan binding to membranes of h-H3-HEK 293 clones
Conditions: 30 pM [125I]-iodoproxifan, h-H3-HEK 293 membranes
pIC50: −log10 of the molar value.
REPORTED PROPERTY: pIC50

State measured pIC50 of the compound `Cc1[nH]cnc1CCCCOc1ccc2ccccc2c1` with H3 receptor (Homo sapiens).
> 7.00

Hello, the source for this data is patent US20040127718A1, in case you need it.
